Consider the following binders; for each one, report its Protein ELISA (fold over background).
System Tested: T1, cMet-Fc fusion protein (extracellular domain of the cMet receptor expressed as an Fc-fusion protein) (human, UniProt P08581 25-932)
T1 construct: extracellular domain; also called soluble cMet-Fc-fusion protein; soluble cMet receptor; not shown: Fc part
T1 sequence (P08581 25-932): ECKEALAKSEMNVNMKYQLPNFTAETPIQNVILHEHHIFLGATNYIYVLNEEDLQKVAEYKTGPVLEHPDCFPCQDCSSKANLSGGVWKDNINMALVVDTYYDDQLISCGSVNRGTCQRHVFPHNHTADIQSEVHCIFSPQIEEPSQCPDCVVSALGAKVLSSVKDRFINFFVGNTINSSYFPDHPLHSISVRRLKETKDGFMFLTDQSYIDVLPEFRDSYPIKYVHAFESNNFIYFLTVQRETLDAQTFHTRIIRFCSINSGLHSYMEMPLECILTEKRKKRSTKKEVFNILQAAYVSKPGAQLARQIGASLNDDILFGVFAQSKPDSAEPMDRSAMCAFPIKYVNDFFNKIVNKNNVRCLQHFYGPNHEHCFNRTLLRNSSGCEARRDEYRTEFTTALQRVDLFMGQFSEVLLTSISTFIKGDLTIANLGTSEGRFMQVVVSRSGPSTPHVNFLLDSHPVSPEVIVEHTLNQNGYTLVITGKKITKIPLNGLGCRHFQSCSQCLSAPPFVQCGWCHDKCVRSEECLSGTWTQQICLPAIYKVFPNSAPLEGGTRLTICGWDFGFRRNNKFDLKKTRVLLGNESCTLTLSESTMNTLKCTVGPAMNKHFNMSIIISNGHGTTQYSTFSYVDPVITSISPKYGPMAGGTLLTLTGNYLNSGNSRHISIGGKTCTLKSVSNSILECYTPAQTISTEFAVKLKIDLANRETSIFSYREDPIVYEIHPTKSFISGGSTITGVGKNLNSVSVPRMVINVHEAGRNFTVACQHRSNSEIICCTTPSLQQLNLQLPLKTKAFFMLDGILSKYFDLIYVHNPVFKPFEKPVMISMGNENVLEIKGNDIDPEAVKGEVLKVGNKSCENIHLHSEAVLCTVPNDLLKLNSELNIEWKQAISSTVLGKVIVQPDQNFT
Protocol Text: phage ELISA, cMet-Fc vs TRAIL-Fc

In the examples that follow, each entry is paired with its recorded Protein ELISA (fold over background).
{"Binder": "AGWSDCLGPPQFTCVHWGT [552-A01 peptide-displaying phage (SEQ ID NO: 083)]", "Value": "3.9 fold"}
{"Binder": "AGETFCSGWPTFECMQWGT [547-H03 peptide-displaying phage (SEQ ID NO: 095)]", "Value": "16.2 fold"}

Hi, could you look up Protein ELISA (fold over background) for each item in my list?
1. GDGFLCRWENGWCEFWDP [545-E08 peptide-displaying phage (SEQ ID NO: 047)]
2. AGQYLCTQAALGCPEWGT [465-E11 peptide-displaying phage (SEQ ID NO: 029)]
3. AQKETWEFFDIVYGSGWKFNSP [116-H02 peptide-displaying phage (SEQ ID NO: 466)]
4. AQAEWVITSEEFYWKMADFGPP [75-B12 peptide-displaying phage (SEQ ID NO: 478)]

Reply:
["4.7 fold", "4.3 fold", "4 fold", "3.4 fold"]

Look at each binder and report its Protein ELISA (fold over background).
1. AGDFICQGPPSFVCTNIGT [550-A08 peptide-displaying phage (SEQ ID NO: 097)]
2. GDSYNCSWDSKTFEVTCLYADP [546-B01 peptide-displaying phage (SEQ ID NO: 393)]
3. GSSTICPGTACVDHAP [574-H03 peptide-displaying phage (SEQ ID NO: 008)]

Reply:
8.4 fold
8.4 fold
3.2 fold

# return Protein ELISA (fold over background) for each item in the list
1. GDHRKCEISAKTHEVTCYDNDP [545-F04 peptide-displaying phage (SEQ ID NO: 402)]
2. AGYYHCIDDFPQCKWMGT [482-D02 peptide-displaying phage (SEQ ID NO: 017)]
3. AGLYLCDLSIMYCFFQGT [489-A04 peptide-displaying phage (SEQ ID NO: 015)]
4. AGSWHCAGPPSFECWEFGT [331-G04 peptide-displaying phage (SEQ ID NO: 055)]
5. AGSSPCKGWPTFECYFYGT [552-F01 peptide-displaying phage (SEQ ID NO: 087)]
6. AGYSVCKGYPSFECAFFGT [336-D07 peptide-displaying phage (SEQ ID NO: 075)]

Reply:
1: 5.2 fold; 2: 3.9 fold; 3: 4.3 fold; 4: 18.3 fold; 5: 4.8 fold; 6: 5.8 fold

Recorded values, source patent US20120039802A1.
